Listed compounds paired with reported Relative Protease Enzyme Activity
system: protease; experiment: Protease activity retention in detergent use solution (4000 ppm, 5 GPG water; peptidyl substrate, glycine buffer pH 9.0); type: biochemical; details: base formula, phosphonate at 0.1% elemental phosphorus, use solution at 120° F., time 60 min
Lab book: enter the figure in %, no units written.

Please review the following examples before continuing.
Exercise: Could you share which Relative Protease Enzyme Activity value was measured for NCP(=O)(O)O ?
Solution: 62.19

Exercise: I'd like to know its Relative Protease Enzyme Activity. The compound in question is O=P(O)(O)CN(CP(=O)(O)O)CP(=O)(O)O
Solution: 102.70

Exercise: Recorded Relative Protease Enzyme Activity for CC(O)(P(=O)(O)O)P(=O)(O)O , please?
Solution: 5.36

Now turn to the next compound.
Exercise: What value of Relative Protease Enzyme Activity has been reported for the following compound? O=C(O)CCC(CC(=O)O)(C(=O)O)P(=O)(O)O (stereo not shown)
Solution: 4.68
